Consider the following molecules and their measured selectivity ratio readings.
Assay: Selectivity index, ratio of IC50 for mouse RAW264.7 cells to IC50 for Trypanosoma brucei brucei Lister 427
Type: toxicity
Details: read-out: Ratio IC50

The examples below pair each entry with its known result.
molecule=COc1cc(NC(=O)c2cccc(C(F)(F)F)c2)ccc1NS(C)(=O)=O result="< 2"
molecule=COc1cc(NC(=O)c2ccc(Cl)cc2)ccc1NS(C)(=O)=O result="< 2"
molecule=O=C(Nc1ccc(NS(=O)(=O)C(F)(F)F)c(Cl)c1)c1cc(C(F)(F)F)cc(C(F)(F)F)c1 result=3

Sample CCS(=O)(=O)Nc1ccc(NC(=O)c2ccc(C#N)cc2)cc1F — what was its selectivity ratio?
< 2

Sample CS(=O)(=O)Nc1ccc(NC(=O)c2ccc(Cl)cc2)cc1F — what was its selectivity ratio?
< 1

---

Consider the following compounds and their measured IC50 readings.
System: Trypanosoma brucei brucei
Assay: Antiparasitic activity against Trypanosoma brucei brucei Lister 427 assessed as reduction in parasite viability after 48 hrs by MTS assay
Type: functional, organism-based
Conditions: Lister 427, 48 h
Give the value in µM but do not write µM after it.

Sample Cc1cc(NC(=O)c2cc(C(F)(F)F)cc(C(F)(F)F)c2)ccc1NS(C)(=O)=O — what was its IC50?
2.93

Sample CS(=O)(=O)Nc1ccc(NC(=O)c2cc(C(F)(F)F)cc(C(F)(F)F)c2)cc1Cl — what was its IC50?
10.1

Sample COc1cc(NC(=O)c2cccc(C(F)(F)F)c2)ccc1NS(=O)(=O)C(F)(F)F — what was its IC50?
43

Sample CCS(=O)(=O)Nc1ccc(NC(=O)c2cc(C(F)(F)F)cc(C(F)(F)F)c2)cc1C — what was its IC50?
12.5

Sample CCS(=O)(=O)Nc1ccc(NC(=O)c2cccc(C(F)(F)F)c2)cc1C — what was its IC50?
35.3

Sample CCS(=O)(=O)Nc1ccc(NC(=O)c2cc(C(F)(F)F)cc(C(F)(F)F)c2)cc1OC — what was its IC50?
11.6

Sample Cc1cc(NC(=O)c2ccc(Cl)cc2)ccc1NS(=O)(=O)C(F)(F)F — what was its IC50?
37.2

Sample COc1cc(NC(=O)c2ccc(Cl)cc2)ccc1NS(=O)(=O)C(F)(F)F — what was its IC50?
45.6

---

Test: Selectivity index, ratio of IC50 for HEK293 cells to IC50 for Trypanosoma brucei brucei Lister 427
Assay type: toxicity
Conditions: human, read-out: Ratio IC50
ATTRIBUTE_MEASURED: selectivity ratio

The examples below pair each entry with its known result.
molecule=O=C(Nc1ccc(NS(=O)(=O)C(F)(F)F)c(Cl)c1)c1ccc(Cl)c([N+](=O)[O-])c1 result=5
molecule=CCS(=O)(=O)Nc1ccc(NC(=O)c2cccc(C(F)(F)F)c2)cc1C result=6

Sample CCS(=O)(=O)Nc1ccc(NC(=O)c2ccc(Cl)c([N+](=O)[O-])c2)cc1Cl — what was its selectivity ratio?
29

Sample CS(=O)(=O)Nc1ccc(NC(=O)c2ccc(Cl)cc2)cc1F — what was its selectivity ratio?
< 4

Sample O=C(Nc1ccc(NS(=O)(=O)C(F)(F)F)c(Cl)c1)c1ccc(Cl)cc1 — what was its selectivity ratio?
< 4

Sample COc1cc(NC(=O)c2cc(C(F)(F)F)cc(C(F)(F)F)c2)ccc1NS(C)(=O)=O — what was its selectivity ratio?
< 1

Sample Cc1cc(NC(=O)c2cc(C(F)(F)F)cc(C(F)(F)F)c2)ccc1NS(C)(=O)=O — what was its selectivity ratio?
56

Sample Cc1cc(NC(=O)c2cc(C(F)(F)F)cc(C(F)(F)F)c2)ccc1NS(=O)(=O)C(F)(F)F — what was its selectivity ratio?
9

Sample CCS(=O)(=O)Nc1ccc(NC(=O)c2cc(C(F)(F)F)cc(C(F)(F)F)c2)cc1OC — what was its selectivity ratio?
> 22

Sample Cc1cc(NC(=O)c2ccc(Cl)c([N+](=O)[O-])c2)ccc1NS(C)(=O)=O — what was its selectivity ratio?
10

Sample CCS(=O)(=O)Nc1ccc(NC(=O)c2ccc(C#N)cc2)cc1F — what was its selectivity ratio?
< 1

Sample COc1cc(NC(=O)c2cccc(C(F)(F)F)c2)ccc1NS(=O)(=O)C(F)(F)F — what was its selectivity ratio?
> 6

---

Assay: Selectivity index, ratio of IC50 for HEK293 cells to IC50 for Trypanosoma brucei brucei Lister 427
Format: toxicity
Conditions: human, read-out: Ratio IC50
ATTRIBUTE_MEASURED: selectivity ratio

The examples below pair each entry with its known result.
molecule=CS(=O)(=O)Nc1ccc(NC(=O)c2ccc(Cl)c([N+](=O)[O-])c2)cc1F result="< 1"
molecule=CCS(=O)(=O)Nc1ccc(NC(=O)c2cccc(C(F)(F)F)c2)cc1Cl result=20

Sample COc1cc(NC(=O)c2ccc(C#N)cc2)ccc1NS(=O)(=O)C(F)(F)F — what was its selectivity ratio?
> 26

Sample CCS(=O)(=O)Nc1ccc(NC(=O)c2cc(C(F)(F)F)cc(C(F)(F)F)c2)cc1C — what was its selectivity ratio?
10

Sample O=C(Nc1ccc(NS(=O)(=O)C(F)(F)F)c(F)c1)c1cc(C(F)(F)F)cc(C(F)(F)F)c1 — what was its selectivity ratio?
17

Sample O=C(Nc1ccc(NS(=O)(=O)C(F)(F)F)c(F)c1)c1ccc(Cl)c([N+](=O)[O-])c1 — what was its selectivity ratio?
12

Sample Cc1cc(NC(=O)c2ccc(C#N)cc2)ccc1NS(C)(=O)=O — what was its selectivity ratio?
< 1

Sample COc1cc(NC(=O)c2ccc(Cl)c([N+](=O)[O-])c2)ccc1NS(=O)(=O)C(F)(F)F — what was its selectivity ratio?
> 18
